Please provide measured bioavailability for the entries that follow.
test summary: Oral bioavailability
Type: ADME, organism-based
condition details: eutheria, in vivo
Numbers only, in %.

compound	parameter	measured number
Cc1ccccc1C(NC(=O)CN1C[C@H](c2ccc3c(c2)OCO3)[C@@H](C(=O)O)[C@@H]1c1ccc(OCCOC(C)C)cc1)c1ccccc1C.O=C(O)C(F)(F)F (stereo in doubt; form 1)	bioavailability	24

Moving on to the next compound.
Quick one: bioavailability of COCCOc1ccc([C@H]2[C@H](C(=O)O)[C@@H](c3ccc4c(c3)OCO4)CN2CC(=O)NC(c2ccccc2C)c2ccccc2C)cc1.O=C(O)C(F)(F)F (stereo in doubt; form 2) ?
8

###

measured on: Endothelin receptor, ET-A/ET-B (Homo sapiens) (UniProt P24530+P25101)
Sequence (P24530 whole entry, looked up, one chain of several): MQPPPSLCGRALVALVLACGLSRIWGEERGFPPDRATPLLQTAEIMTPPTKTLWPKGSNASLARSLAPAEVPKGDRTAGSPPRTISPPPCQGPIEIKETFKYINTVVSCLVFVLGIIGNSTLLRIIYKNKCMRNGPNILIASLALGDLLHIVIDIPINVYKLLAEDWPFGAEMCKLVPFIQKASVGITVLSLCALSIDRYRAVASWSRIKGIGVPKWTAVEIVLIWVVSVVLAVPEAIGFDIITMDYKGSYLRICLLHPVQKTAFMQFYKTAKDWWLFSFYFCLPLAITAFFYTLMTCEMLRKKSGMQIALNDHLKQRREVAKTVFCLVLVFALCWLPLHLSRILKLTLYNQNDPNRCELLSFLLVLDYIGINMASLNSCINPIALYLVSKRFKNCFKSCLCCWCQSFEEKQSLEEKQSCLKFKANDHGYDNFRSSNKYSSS
test summary: Ratio of binding affinity towards human endothelin receptor type A to human endothelin receptor type B (hETA to hETB)
Assay type: protein assay
parameter: Ratio
Answers are plain numbers.

The cases that follow already have their Ratio on record.
compound	measured on	Ratio
COc1ccc([C@H]2[C@H](C(=O)O)[C@@H](c3ccc4c(c3)OCO4)CN2CC(=O)NC(c2ccccc2)c2ccccc2)cc1	Endothelin receptor, ET-A/ET-B (Homo sapiens) (UniProt P24530+P25101)	5.67
Cc1ccccc1C(NC(=O)CN1C[C@H](c2ccc3c(c2)OCO3)[C@@H](C(=O)O)[C@@H]1c1ccc(OCCOC(C)C)cc1)c1ccccc1C (stereo in doubt; form 2)	Endothelin receptor, ET-A/ET-B (Homo sapiens) (UniProt P24530+P25101)	23400

Moving on to the next compound.
Quick one: Ratio of CCc1ccccc1C(NC(=O)CN1C[C@H](c2ccc3c(c2)OCO3)[C@@H](C(=O)O)[C@@H]1c1ccc(OC)cc1)c1ccccc1C (stereo partly drawn) ?
123

###

Protein target, amino acids: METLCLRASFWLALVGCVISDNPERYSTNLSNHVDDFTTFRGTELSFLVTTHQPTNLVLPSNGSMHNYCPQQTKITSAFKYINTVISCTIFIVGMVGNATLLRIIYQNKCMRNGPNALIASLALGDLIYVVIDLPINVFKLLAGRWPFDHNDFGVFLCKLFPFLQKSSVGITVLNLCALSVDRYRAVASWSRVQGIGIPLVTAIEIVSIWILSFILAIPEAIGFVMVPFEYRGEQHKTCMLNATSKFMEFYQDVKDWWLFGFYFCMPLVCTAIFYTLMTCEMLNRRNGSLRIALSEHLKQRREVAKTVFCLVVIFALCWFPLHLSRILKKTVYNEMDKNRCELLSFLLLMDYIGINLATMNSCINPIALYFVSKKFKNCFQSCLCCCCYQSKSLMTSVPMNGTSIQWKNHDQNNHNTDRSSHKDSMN
parameter: IC50 (nM)
Answers are plain numbers, in nM.

compound	IC50 / nM
COCCOc1ccc([C@H]2[C@H](C(=O)O)[C@@H](c3ccc4c(c3)OCO4)CN2CC(=O)NC(c2ccccc2C)c2ccccc2C)cc1.O=C(O)C(F)(F)F (stereo in doubt; form 2)	27000
CCC(NC(=O)CN1C[C@H](c2ccc3c(c2)OCO3)[C@@H](C(=O)O)[C@@H]1c1ccc(OC)cc1)c1ccccc1 (stereo partly specified)	1
Cc1ccccc1C(NC(=O)CN1C[C@H](c2ccc3c(c2)OCO3)[C@@H](C(=O)O)[C@@H]1c1ccc(OCCOC(C)C)cc1)c1ccccc1C (stereo in doubt; form 2)	77400
CCCC(NC(=O)CN1C[C@H](c2ccc3c(c2)OCO3)[C@@H](C(=O)O)[C@@H]1c1ccc(OC)cc1)c1ccccc1 (stereo partly specified)	3.7
COc1ccc([C@H]2[C@H](C(=O)O)[C@@H](c3ccc4c(c3)OCO4)CN2CC(=O)NC(c2ccccc2)c2ccccc2)cc1	45.9

Moving on to the next compound.
Quick one: IC50 of CCc1ccccc1C(NC(=O)CN1C[C@H](c2ccc3c(c2)OCO3)[C@@H](C(=O)O)[C@@H]1c1ccc(OC)cc1)c1ccccc1C (stereo partly specified) ?
749
